Target: T1, recombinant purified human Nectin-4-Fc fusion protein (human, UniProt Q96NY8 32-349)
T1 construct: Bought ('Aero Biosystems' as printed); not shown: Fc part of the bought fusion protein; captured by anti-human IgG Fc sensors
T1 sequence: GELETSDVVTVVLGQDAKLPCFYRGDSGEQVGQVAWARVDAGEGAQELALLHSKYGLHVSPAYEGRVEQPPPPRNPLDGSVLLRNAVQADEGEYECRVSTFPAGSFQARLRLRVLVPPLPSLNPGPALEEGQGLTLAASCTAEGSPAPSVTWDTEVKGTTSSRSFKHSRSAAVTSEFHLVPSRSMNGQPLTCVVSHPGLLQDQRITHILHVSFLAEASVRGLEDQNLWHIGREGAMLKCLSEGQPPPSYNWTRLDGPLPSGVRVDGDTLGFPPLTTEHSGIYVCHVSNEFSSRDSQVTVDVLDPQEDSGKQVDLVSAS
Assay: BLI (Octet), Nectin-4-Fc on anti-human Fc sensors, run 2
OBSERVATION TYPE: log10 Kd (log10 of the value in nM)
Would you kindly interpret these values as log10 of Kd expressed in nM?

[[record]]
binder = "LV1187 (VHH, Llama-derived anti-Nectin-4 VHH) VHH: EVQLVESGGGLVQAGGFLRLSCAASRSVFRINVMGWYRQAPGKQRELVAGITSGGSRRLADSVKGRFTISRDNAKNTVYLQMNSLKPEDTAVYYCFAEAVVGDEPYWGQGTQVTVSS"
obs_value = 0.78


Exercise: Entry LV1184 (VHH, Llama-derived anti-Nectin-4 VHH) VHH: EVQLVESGGGLVQAGGSLRLSCAASGSISSINLMGWFRQAPAKQRELVTSISPGGSVRYADSVKGRFTISRDVAKNTVDLQMNSLKPEDTAVYYCAAESERTYYFDSWGQGTQVTVSS needs its log10 Kd filled in; supply it.
Key: -0.29
